Tested on: M. tuberculosis Erdman strain
protocol_summary: highly lethal in vitro drug exposure of log-phase M. tuberculosis; killing and pre-rRNA/rRNA by RNAseq and ddPCR
Type: cell-based
particulars: 48 h lethal exposure
readout_label: pre-rRNA in M tuberculosis that survived exposure (FIG. 5, RNAseq reads)

[H]/N=C(/N)N[C@H]1[C@H](O)[C@@H](O)[C@H](O[C@@H]2O[C@@H](C)[C@](O)(C=O)[C@H]2O[C@@H]2O[C@@H](CO)[C@H](O)[C@@H](O)[C@@H]2NC)[C@@H](N/C(N)=N\[H])[C@@H]1O [Streptomycin, streptomycin]; abundant pre-rRNA
COc1nc2ccc(Br)cc2cc1[C@@H](c1ccccc1)[C@@](O)(CCN(C)C)c1cccc2ccccc12 [Bedaquiline, bedaquiline]; negligible pre-rRNA
NNC(=O)c1ccncc1 [Isoniazid, isoniazid]; abundant pre-rRNA
CO[C@H]1/C=C/O[C@@]2(C)Oc3c(C)c(O)c4c(O)c(c(/C=N/N5CCN(C)CC5)c(O)c4c3C2=O)NC(=O)/C(C)=C\C=C\[C@H](C)[C@H](O)[C@@H](C)[C@@H](O)[C@@H](C)[C@H](OC(C)=O)[C@@H]1C [Rifampin, rifampin]; negligible pre-rRNA
